target.under.test: Glucose-dependent insulinotropic receptor (Homo sapiens) (UniProt Q8TDV5)
Sequence (Q8TDV5 whole entry): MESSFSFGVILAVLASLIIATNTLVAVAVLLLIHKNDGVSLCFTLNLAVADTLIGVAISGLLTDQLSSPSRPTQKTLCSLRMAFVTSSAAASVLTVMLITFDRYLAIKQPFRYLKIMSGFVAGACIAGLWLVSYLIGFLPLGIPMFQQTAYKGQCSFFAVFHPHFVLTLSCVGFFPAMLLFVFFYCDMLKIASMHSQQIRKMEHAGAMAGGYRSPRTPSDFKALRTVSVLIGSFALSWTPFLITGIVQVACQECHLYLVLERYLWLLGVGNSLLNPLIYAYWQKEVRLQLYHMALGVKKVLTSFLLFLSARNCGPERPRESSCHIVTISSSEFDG
assay.overview: Agonist activity at human GPR119 expressed in HEK293 cells assessed as increase in cAMP stimulation measured after 60 mins by TR-FRET assay relative to oleoylethanolamide
Format: functional, cell-based
value.kind: %max (%)
Give the value, in units of %, as a plain number.

{"columns": ["molecule", "%max, %"],
 "data": [
  ["CC(C)(C)OC(=O)N1CC2CC1CC2Nc1ncnc(Nc2ccc(S(C)(=O)=O)cc2)c1[N+](=O)[O-] (stereo in doubt; 27j)", 94.3],
  ["CC(C)(C)OC(=O)N1CC2CC(Nc3ncnc(Nc4ccc(S(C)(=O)=O)cc4)c3[N+](=O)[O-])C1C2 (stereo in doubt; 27f)", 38.9],
  ["CC(C)(C)OC(=O)N1CC2CC(Oc3ncnc(Nc4ccc(S(C)(=O)=O)cc4)c3[N+](=O)[O-])C1C2 (centres undefined)", 58.4]
]}

Please give the measured %max for this molecule: CC(C)(C)OC(=O)N1CC2CC1CC2Oc1ncnc(Nc2ccc(S(C)(=O)=O)cc2F)c1[N+](=O)[O-] (centres undefined)
86.7
